These data points were gathered from ChEMBL document CHEMBL3351775.

molecular target: Human immunodeficiency virus type 1 reverse transcriptase (Human immunodeficiency virus 1)
pIC50: −log10 of the molar value.
Decide using pIC50: a value greater than or equal to 6 is T, a smaller one is F.

query: Record CCCNC(=O)c1cnc(Nc2ccc(C#N)cc2)cc1Oc1c(C)cc(C)cc1C ; criterion: pIC50 no lower than 6. Met?
result: T

query: Record CCCNC(=O)c1cnc(Nc2ccc(C#N)cc2)cc1Oc1c(C)cc(C#N)cc1C ; criterion: pIC50 no lower than 6. Met?
result: F

query: Record Cc1cc(C#N)cc(C)c1Oc1cc(Nc2ccc(C#N)cc2)ncc1C(=O)NCCC#N ; criterion: pIC50 no lower than 6. Met?
result: F

query: Record C#CCNC(=O)c1cnc(Nc2ccc(C#N)cc2)cc1Oc1c(C)cc(C)cc1C ; criterion: pIC50 no lower than 6. Met?
result: T
